The reported numbers originate from ChEMBL document CHEMBL3808274.

Test: Ratio of drug level in rat brain to plasma at 10 mg/kg, po incubated for 1 hr
Format: ADME, organism-based
Settings: read-out: BPR
endpoint label: Kp at 1 h
Give bare numbers.

Inquiry: Suppose we examine the compound `Cc1cc(S(=O)(=O)n2ccc(NC(=O)c3ccccn3)c2)ccc1Cl` ; what Kp at 1 h value has been reported?
Reply text: 1

----------
Would you kindly list Fu for each of these compounds?
System: Plasma
Experiment: Fraction unbound in rat plasma by equilibrium dialysis method
Assay type: ADME, cell-free
Give bare numbers.

Worked cases, answers included:
# structure smiles string, Fu
measured = [
    ("Cc1ccc(S(=O)(=O)n2ccc(NC(=O)c3ccccn3)c2)cc1", 0.009),
    ("Cc1cc(S(=O)(=O)n2ccc(NC(=O)c3ccccn3)c2)ccc1Cl", 0.004),
    ("Cc1cccc(S(=O)(=O)n2ccc(NC(=O)c3ccccn3)c2)c1", 0.001),
    ("Cc1ccc(S(=O)(=O)n2ccc(NC(=O)c3ccccn3)c2)cc1C", 0.012),
    ("Cc1ccc(S(=O)(=O)n2cc(NC(=O)c3ccccn3)cn2)cc1C", 0.005),
]

Please examine the following record next.
Inquiry: Item: `O=C(Nc1ccn(S(=O)(=O)c2ccc(Cl)cc2)c1)c1ccccn1` Test system: Plasma Read-out: Fu Value: ?
Reply text: 0.004
